Molecular target: T1, CD32B (UniProt P31994 43-217, limits assumed)
T1 construct: Only the name is printed; also called FcγRIIB
T1 sequence (looked up): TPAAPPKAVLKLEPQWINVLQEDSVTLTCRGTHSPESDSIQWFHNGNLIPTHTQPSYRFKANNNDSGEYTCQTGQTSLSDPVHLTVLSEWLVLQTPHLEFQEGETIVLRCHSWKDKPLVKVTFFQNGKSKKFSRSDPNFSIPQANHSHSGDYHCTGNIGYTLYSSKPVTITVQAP
Assay: assay not named in Table 4
// values below are reported binding relative to wild-type Fc

{"Binder": "Fc variant F243L D270E P396L Q419H (other, UniProt P01857-1 104-330, looked up, domain: Fc) DKTHTCPPCPAPELLGGPSVFLLPPKPKDTLMISRTPEVTCVVVDVSHEEPEVKFNWYVDGVEVHNAKTKPREEQYNSTYRVVSVLTVLHQDWLNGKEYKCKVSNKALPAPIEKTISKAKGQPREPQVYTLPPSRDELTKNQVSLTCLVKGFYPSDIAVEWESNGQPENNYKTTPLVLDSDGSFFLYSKLTVDKSRWQHGNVFSCSVMHEALHNHYTQKSLSLSPGK", "binding relative to wild-type Fc": 0.26}
{"Binder": "Fc variant F243L P247L N421K (other, UniProt P01857-1 104-330, looked up, domain: Fc) DKTHTCPPCPAPELLGGPSVFLLPPKLKDTLMISRTPEVTCVVVDVSHEDPEVKFNWYVDGVEVHNAKTKPREEQYNSTYRVVSVLTVLHQDWLNGKEYKCKVSNKALPAPIEKTISKAKGQPREPQVYTLPPSRDELTKNQVSLTCLVKGFYPSDIAVEWESNGQPENNYKTTPPVLDSDGSFFLYSKLTVDKSRWQQGKVFSCSVMHEALHNHYTQKSLSLSPGK", "binding relative to wild-type Fc": 0.17}
{"Binder": "Fc variant F243L D270E K392T P396L (other, UniProt P01857-1 104-330, looked up, domain: Fc) DKTHTCPPCPAPELLGGPSVFLLPPKPKDTLMISRTPEVTCVVVDVSHEEPEVKFNWYVDGVEVHNAKTKPREEQYNSTYRVVSVLTVLHQDWLNGKEYKCKVSNKALPAPIEKTISKAKGQPREPQVYTLPPSRDELTKNQVSLTCLVKGFYPSDIAVEWESNGQPENNYTTTPLVLDSDGSFFLYSKLTVDKSRWQQGNVFSCSVMHEALHNHYTQKSLSLSPGK", "binding relative to wild-type Fc": 0.44}
